test system: Type IV PDE; experiment: PDE IV inhibition: hydrolysis of [3H]-cyclic AMP by isolated Type IV PDE; type: biochemical, bovine; conditions: adenines, Table 7; read-out: calc PDE IV IC50
reported_endpoint: IC50 (nM)

See these solved cases before continuing.
compound	val
C=C(C)c1nc2c(NCC)ncn(Cc3ccc(OC)c(OC4CCCC4)c3)c-2n1	270
CCNc1ncn(Cc2ccc(OC)c(OC3CCCC3)c2)c2nc(C(C)C)nc1-2	660
C=C(C)c1nc2c(N)ncn(Cc3ccc(OC)c(OC4CCCC4)c3)c-2n1	91
CCNc1ncn(Cc2ccc(OC)c(OC3CCCC3)c2)c2nc(C(C)(C)OCc3ccccc3)nc1-2.Cl [Hydrochloride]	850
CCNc1ncn(Cc2ccc(OC)c(O)c2)c2nc(C(C)(C)O)nc1-2	6500
CCNc1ncn(Cc2ccc(OC)c(OCc3cc[n+]([O-])cc3)c2)c2nc(C(C)C)nc1-2	4500
CCNc1ncn(Cc2ccc(OC)c(OCC3CCN(C)CC3)c2)c2nc(C(C)C)nc1-2	6600

A = CC(C)c1nc2c(NC3CCCC3)ncn(Cc3ccc(Cl)cc3)c-2n1
B = COc1ccc(CNc2ncn(Cc3ccc(OC)c(OC4CCCC4)c3)c3nc(C(C)C)nc2-3)cc1OC1CCCC1
Ask | Hi there! Just curious which has the higher IC50 between A and B . Indicate which entry you chose by stating its label.
Reply | A

* * *

Structures can show the parent of a compound that is named as a salt.
Parameter melting point: see the listing below.

Use these answered entries as a reference point.
compound	reported_endpoint	val
CCNc1ncn(Cc2ccc(Cl)cc2)c2ncnc1-2.Cl	melting point	251 to 254 °C
COc1ccc(Cn2cnc(N)c3nc(C(C)(C)OCc4ccc(F)cc4)nc2-3)cc1OC1CCCC1.Cl	melting point	165 to 174 °C
CCNc1ncn(Cc2ccc(Cl)cc2)c2nc(C(C)C)nc1-2	melting point	215 to 217 °C

Ask | Recall and state the measured melting point for CCNc1ncn(Cc2ccc(OC)c(OC3CCCC3)c2)c2nc(C(C)(C)OCc3ccccc3)nc1-2.Cl .
Reply | 148 to 150 °C

Ask | Give melting point for the following compound: COc1ccc(Cn2cnc(N)c3nc(C(C)(C)OCc4ccc(F)cc4)nc2-3)cc1OC (as salt: hydrochloride)
Reply | 172 to 175 °C

Ask | Quote melting point reported for CCCCCCn1cnc(NCC)c2ncnc1-2 (as salt: hydrochloride) [6-Ethylamino-3-hexyl-3H-purine] please.
Reply | 190 to 195 °C

Ask | Please supply the value of reported melting point for the item CCNc1ncn(Cc2ccccc2)c2ncnc1-2 [3-Benzyl-6-ethylamino-3H-purine]
Reply | 187 to 188 °C

Ask | Give the reported melting point for this compound. COc1ccc(Cn2cnc(N)c3nc(C(C)(C)OCc4ccccc4)nc2-3)cc1OC1CCCC1.Cl
Reply | 201 to 203 °C

* * *

tested on: Type IV PDE; assay: PDE IV inhibition: hydrolysis of [3H]-cyclic AMP by isolated Type IV PDE; type: biochemical, bovine; conditions: adenines, Table 7; read-out: calc PDE IV IC50
pIC50: −log10 of the molar value. Where a name gives a salt, the structure may show the parent alone.
reported_endpoint: pIC50

A = COc1ccc(Cn2cnc(N(C)C)c3nc(C(C)C)nc2-3)cc1OC1CCCC1
B = CC(C)c1nc2c(NC3CC3)ncn(Cc3ccc(Cl)cc3)c-2n1
C = CCNc1ncn(Cc2ccc(OC)c(O)c2)c2nc(C(C)C)nc1-2
Ask | Arrange these 3 compounds in increasing order of pIC50. Respond with the label ranking, as requested.
Reply | A, C, B

1 = COc1ccc(Cn2cnc(N)c3nc(C(C)(C)O)nc2-3)cc1OCCCCO [hydrochloride]
2 = CCNc1nc(Cc2ccc(OC)c(OC)c2)[nH]c2nc(C(C)C)nc1-2
Ask | Higher pIC50: 1 or 2 ? Could you answer with the label of the item you picked?
Reply | 2

P = CCNc1ncn(-c2ccc(Cl)cc2)c2nc(C(C)C)nc1-2
Q = CCCCOc1cc(Cn2cnc(NCC)c3nc(C(C)C)nc2-3)ccc1OC
Ask | I need your help: which of the pair P , Q has higher pIC50? Select an item and report its label.
Reply | Q

* * *

tested on: Type IV PDE; assay: PDE IV inhibition: hydrolysis of [3H]-cyclic AMP by isolated Type IV PDE; assay type: biochemical, bovine; conditions: adenines, Table 7; read-out: calc PDE IV IC50
Counter-ions that a name gives are not always drawn.
reported_endpoint: IC50 (nM)

Some entries whose results are on file:
molecule	value_unit	val
CCNc1ncn(Cc2ccc(OC)c(OCCCCO)c2)c2nc(C(C)C)nc1-2	nM	1750
COc1ccc(Cn2cnc(N)c3nc(C(C)(C)OCc4ccccc4)nc2-3)cc1OC1CCCC1.Cl [Hydrochloride]	nM	5
COc1ccc(Cn2cncc3nc(C(C)(C)O)nc2-3)cc1OC1CCC(O)C1 (stereo not shown)	nM	2250
CC(C)c1nc2c(NC3(O)CCCC3)ncn(Cc3ccc(Cl)cc3)c-2n1	nM	4480
CCNc1ncn(CC)c2nc(C3CC3)nc1-2	nM	27100
COc1ccc(Cn2cnc(NCC(F)(F)F)c3nc(C(C)C)nc2-3)cc1OC1CCCC1	nM	12800
COc1ccc(Cn2cnc(N)c3nc(C(C)(C)OCc4ccccc4)nc2-3)cc1OCc1ccccc1	nM	3120
COc1ccc(Cn2cnc(N)c3nc(C(C)(C)O)nc2-3)cc1OC1CCCC1	nM	250
COc1ccc(Cn2cnc(N)c3nc(C(C)C)nc2-3)cc1O	nM	15100
CCNc1ncn(Cc2ccc3c(c2)OCO3)c2nc(C(C)C)nc1-2	nM	440

a = COc1ccc(Cn2cnc(N)c3nc(C(C)(C)OCc4ccc(F)cc4)nc2-3)cc1OC [Hydrochloride]
b = CC(C)c1nc2c(N)ncn(Cc3ccc4c(c3)OCO4)c-2n1
Ask | Input pair: a , b . Output: entry with lower IC50. Refer to your chosen item by its label in the answer.
Reply | a

* * *

tested on: Type IV PDE; test: PDE IV inhibition: hydrolysis of [3H]-cyclic AMP by isolated Type IV PDE; type: biochemical, bovine; conditions: adenines, Table 7; read-out: calc PDE IV IC50
reported_endpoint: IC50 (µM)

compound	IC50 / µM
COc1ccc(Cn2cnc(N)c3nc(C(C)C)nc2-3)cc1OCCCCO	4.2
CCNc1ncn(Cc2ccc(OC)c(OC3CCC(O)C3)c2)c2nc(C(C)(C)O)nc1-2 (stereo not shown)	2.6
CCNc1ncn(Cc2ccc(OC)c(OC3CN4CCC3CC4)c2)c2nc(C(C)C)nc1-2 (stereo not shown)	2.05
CC(C)c1nc2c(N)ncn(Cc3ccc(Cl)cc3)c-2n1	20.8
CCNc1ncn(Cc2ccc(OC)c(O[C@@H]3C[C@H]4CC[C@@H](C3)N4C)c2)c2nc(C(C)C)nc1-2	6.02

1 = CC(C)c1nc2c(N)ncn(CC3CCCC3)c-2n1
2 = C=C(C)c1nc2c(N)ncn(Cc3ccc(OC)c(OC)c3)c-2n1
3 = CCN(C(=O)c1ccccc1)c1ncn(Cc2ccc(OC)c(OC3CCCC3)c2)c2nc(C(C)C)nc1-2
4 = COc1ccc(Cn2cnc(N)c3nc(C(C)C)nc2-3)cc1OC
5 = CCNc1ncn(Cc2cccc(Cl)c2)c2nc(C(C)C)nc1-2
Ask | rank_up(items): orders items by reported IC50 in ascending numerical order. I'd appreciate it if you listed the labels in the requested order.
Reply | 4, 3, 5, 2, 1
(4: 0.92 µM, 3: 1.43 µM, 5: 2.15 µM, 2: 3.7 µM, 1: 23.2 µM)
